Experiment: Acute toxicity, single administration (LD50, Litchfield and Wilcoxon method)
Conditions: in vivo, po, rat, p.o., read-out: LD50 (95% confidence limit)
metric: LD50

INSERT INTO assay_data (compound, result) VALUES
  ('CCC12C=C(C(=O)OC3OC(=O)c4ccccc43)n3c4c(c5ccccc53)CCN(CCC1)C42 (stereo not shown)', '> 3000 mg/kg');

----------
Assay: Pharmacokinetics in vivo after oral administration of tritium-labelled AP 698
Conditions: rat, oral, plasma; read-out: half-life of unchanged AP 698
metric: half-life (h)

INSERT INTO measurements (molecule, metric, scaleunit, recordednumber) VALUES
  ('CCC12C=C(C(=O)OC3OC(=O)c4ccccc43)n3c4c(c5ccccc53)CCN(CCC1)C42 (stereo not shown) [AP 698]', 'half-life', 'h', 1.2);

src = patent US4486437A
